Biological target: CRAC channel (Homo sapiens (Human), UniProt Q96D31)
Sequence (Q96D31 whole entry): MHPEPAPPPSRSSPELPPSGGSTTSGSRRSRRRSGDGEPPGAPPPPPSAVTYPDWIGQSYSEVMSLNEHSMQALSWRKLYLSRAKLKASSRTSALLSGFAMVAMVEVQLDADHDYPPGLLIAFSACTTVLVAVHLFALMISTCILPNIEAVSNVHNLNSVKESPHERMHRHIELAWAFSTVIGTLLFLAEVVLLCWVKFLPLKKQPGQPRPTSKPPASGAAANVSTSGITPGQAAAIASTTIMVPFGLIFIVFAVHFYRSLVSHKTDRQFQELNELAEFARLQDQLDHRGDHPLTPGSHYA
Experiment: GFP-NFAT translocation-based high-content screening (TG-stimulated HeLa cells stably expressing GFP-NFAT)
Type: cell-based
Details: Table 2; unit inferred; read-out: IC50 of the compounds (inhibitory activity on CRAC channel)
REPORTED_ENDPOINT: pIC50
Conceptually, pIC50 converts a concentration in mol/L into minus its log10.

molecule="CN/C(=N/c1ccccc1OC)SC1CC(=O)N(c2ccc(C(=O)OC)cc2)C1=O (stereo not shown)" test_value=4.13
molecule="CNC(=O)c1ccc(N2C(=O)CC(S/C(=N/c3ccccc3)NCCc3ccc(S(N)(=O)=O)cc3)C2=O)cc1 (stereo not shown)" test_value=4.74
molecule="Cc1ccc(/N=C(\\NCCc2ccc(S(N)(=O)=O)cc2)SC2CC(=O)N(c3ccccc3)C2=O)cc1 (stereo not shown)" test_value=5.23

# ---- query molecule ----
Which pIC50 is reported with CRAC channel (Homo sapiens (Human), UniProt Q96D31) for this entry: CCN/C(=N/c1ccc(C)c(Cl)c1)SC1CC(=O)N(c2ccc(C(=O)OC)cc2)C1=O (stereo not shown) ? 4.95

###

Target: CRAC channel (Homo sapiens (Human))
Assay: GFP-NFAT translocation-based high-content screening (TG-stimulated HeLa cells stably expressing GFP-NFAT)
Type: cell-based
Settings: 200 μM compound
REPORTED_ENDPOINT: Inhibitory activity on CRAC channel in primary screening (NFAT nucleus-to-cytosol ratio)

compound="CN/C(=N/c1cc(Cl)ccc1Cl)SC1CC(=O)N(c2ccc(C(=O)OC)cc2)C1=O (stereo not drawn) [Compound 65]" test_value="good inhibition"
compound="CCN/C(=N/c1ccc(C)c(Cl)c1)SC1CC(=O)N(c2ccc(C(=O)OC)cc2)C1=O (stereo not drawn) [Compound 62]" test_value="good inhibition"
compound="COC(=O)c1ccc(N2C(=O)CC(S/C(=N\\c3ccccc3)NCCc3ccc(S(N)(=O)=O)cc3)C2=O)cc1 (stereo not drawn) [Compound 53]" test_value="good inhibition"
compound="CCN/C(=N/c1ccc2c(c1)OCO2)SC1CC(=O)N(c2ccc(C(=O)OC)cc2)C1=O (stereo not drawn) [Compound 66]" test_value="good inhibition"
compound="CCN/C(=N\\c1cccc(C(F)(F)F)c1)S[C@H]1CC(=O)N(c2ccc(C(=O)O)cc2)C1=O [Compound 03]" test_value="good activity"

Need Inhibitory activity on CRAC channel in primary screening (NFAT nucleus-to-cytosol ratio), item CCN/C(=N\c1cc(Cl)cc(Cl)c1)S[C@H]1CC(=O)N(c2ccc(C(=O)O)cc2)C1=O [Compound 41] good activity

###

# Lookup of reported IC50 keyed by entry
Target: UniProt Q96D31
Assay: GFP-NFAT translocation-based high-content screening (TG-stimulated HeLa cells stably expressing GFP-NFAT)
Assay type: cell-based
Details: Table 2; unit inferred; read-out: IC50 of the compounds (inhibitory activity on CRAC channel)

Examples with their reported IC50 follow.
molecule="COc1ccc(OC)c(/N=C(\\NCCc2ccc(S(N)(=O)=O)cc2)SC2CC(=O)N(c3ccccc3)C2=O)c1 (stereo not shown)" test_value="0.2 µM"
molecule="COc1ccc(/N=C(\\NCCc2ccc(S(N)(=O)=O)cc2)SC2CC(=O)N(c3ccc(OC)cc3)C2=O)cc1 (stereo not shown)" test_value="> 200 µM"
molecule="COC(=O)c1ccc(N2C(=O)CC(S/C(=N/c3ccccc3)NC(C)(C)C)C2=O)cc1 (stereo not shown)" test_value="> 200 µM"

// switching to the query molecule
Item COc1ccc(CN/C(=N/c2ccc(Cl)cc2)SC2CC(=O)N(c3ccc(C(=O)O)cc3)C2=O)cc1 (stereo not shown) has what recorded IC50? > 200 µM
